- measuredTarget: T1, EsCas13d, nuclease-dead (Eubacterium siraeum, UniProt B0MS50, R295A;H300A;R849A;H854A)
- T1 sequence: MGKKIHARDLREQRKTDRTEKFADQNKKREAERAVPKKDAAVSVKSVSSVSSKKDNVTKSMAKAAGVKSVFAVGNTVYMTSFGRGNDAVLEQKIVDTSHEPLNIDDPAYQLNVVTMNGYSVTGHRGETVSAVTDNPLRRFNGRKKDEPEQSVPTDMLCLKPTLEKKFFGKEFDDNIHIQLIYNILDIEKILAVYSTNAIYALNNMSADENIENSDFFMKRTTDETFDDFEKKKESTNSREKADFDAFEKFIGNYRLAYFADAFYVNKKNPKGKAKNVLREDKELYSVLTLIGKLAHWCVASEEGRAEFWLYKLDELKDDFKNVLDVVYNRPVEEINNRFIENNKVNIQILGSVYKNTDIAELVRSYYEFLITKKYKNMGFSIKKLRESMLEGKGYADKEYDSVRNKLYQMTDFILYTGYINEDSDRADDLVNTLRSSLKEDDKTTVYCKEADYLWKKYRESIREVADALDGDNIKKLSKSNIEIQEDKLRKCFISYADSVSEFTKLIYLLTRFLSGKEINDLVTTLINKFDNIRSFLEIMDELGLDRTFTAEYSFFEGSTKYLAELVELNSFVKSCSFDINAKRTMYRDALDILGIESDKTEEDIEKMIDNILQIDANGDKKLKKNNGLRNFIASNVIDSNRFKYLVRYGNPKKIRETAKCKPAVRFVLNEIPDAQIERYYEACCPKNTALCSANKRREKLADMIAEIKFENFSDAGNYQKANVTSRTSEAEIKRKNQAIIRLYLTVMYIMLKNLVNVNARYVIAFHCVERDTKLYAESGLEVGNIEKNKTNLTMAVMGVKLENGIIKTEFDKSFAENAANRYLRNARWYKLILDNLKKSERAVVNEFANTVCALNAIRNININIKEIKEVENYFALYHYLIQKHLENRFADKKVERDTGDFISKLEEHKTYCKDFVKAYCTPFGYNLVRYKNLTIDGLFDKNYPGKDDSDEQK
- measurementDescription: crRNA (strand 1, pre-loaded); Mg2+; 40 mM Tris-HCl pH 7.5, 150 mM NaCl, 6 mM MgCl2, 1 mM DTT, 0.1% Tween-20, 0.2 mg/ml BSA; 25 C; 10 min per concentration, then washed
- reportedConditions: tags: His6-TwinStrep-SUMO cleaved; N-terminal SNAP kept (SNAP-Surface 488); label: 3' end held by stalled T7 RNA polymerase
Provide the reported Kd of each item.
Answers are plain numbers, in nM.

Record Kd for all entries; do not skip any.
1. target 1 MT 5'PFS GAG 3'PFS UUU (mixed) RNA 1: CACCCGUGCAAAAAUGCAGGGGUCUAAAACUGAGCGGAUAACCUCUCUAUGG RNA 2: GGGAAUGGAUCCACAUCUACGAAUUCGAGCCAUAGAGAGGUUAUCCGCUCAUUUAGAUCGGAAGAGCACACGU
2. target 1 MT 5'PFS GAA 3'PFS UUC (mixed) RNA 1: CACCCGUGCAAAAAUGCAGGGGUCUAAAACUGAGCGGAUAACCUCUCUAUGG RNA 2: GGGAAUGGAUCCACAUCUACGAAUUCGAACCAUAGAGAGGUUAUCCGCUCAUUCAGAUCGGAAGAGCACACGU

output:
1: 23; 2: 51

Give me Kd for each of these binders, listed below.
1. target 3 G4U,U22G (mixed) RNA 1: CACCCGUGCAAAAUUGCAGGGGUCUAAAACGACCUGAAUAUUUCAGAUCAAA RNA 2: GGGAAUGGAUCCACAUCUACGAAUUCGUUGUUGAUCUGAAAUAUUCAUGUCUGCAGAUCGGAAGAGCACACGU
2. target 1 insU 3' of 2,insA 3' of 2 (mixed) RNA 1: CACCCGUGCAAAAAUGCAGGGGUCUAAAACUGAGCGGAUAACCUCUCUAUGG RNA 2: GGGAAUGGAUCCACAUCUACGAAUUCGUACCAUAGAGAGGUUAUCCGCUCUAACCGAGAUCGGAAGAGCACACGU
3. target 1 MT 5'PFS ACA 3'PFS AUA (mixed) RNA 1: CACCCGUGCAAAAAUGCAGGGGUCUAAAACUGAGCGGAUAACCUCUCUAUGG RNA 2: GGGAAUGGAUCCACAUCUACGAAUUCACACCAUAGAGAGGUUAUCCGCUCAAUAAGAUCGGAAGAGCACACGU
4. target 1 insA 3' of 15,insA 3' of 8 (mixed) RNA 1: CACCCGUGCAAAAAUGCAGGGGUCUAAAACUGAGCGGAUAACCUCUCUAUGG RNA 2: GGGAAUGGAUCCACAUCUACGAAUUCGUACCAUAGAGAAGGUUAUACCGCUCACCGAGAUCGGAAGAGCACACGU
5. target 2 MT 5'PFS AUG 3'PFS AGA (mixed) RNA 1: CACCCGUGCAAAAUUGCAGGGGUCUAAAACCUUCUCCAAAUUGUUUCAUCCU RNA 2: GGGAAUGGAUCCACAUCUACGAAUUCAUGAGGAUGAAACAAUUUGGAGAAGAGAAGAUCGGAAGAGCACACGU

output:
[37, 10.9, 12.2, 7.4, 15]

Reference for the values: paper PMC10786891
